Ref: patent US20250206841A1

assayed_target: T1, human Trop-2 expressed on cell surface (human, UniProt P09758 27-323)
T1 sequence (looked up): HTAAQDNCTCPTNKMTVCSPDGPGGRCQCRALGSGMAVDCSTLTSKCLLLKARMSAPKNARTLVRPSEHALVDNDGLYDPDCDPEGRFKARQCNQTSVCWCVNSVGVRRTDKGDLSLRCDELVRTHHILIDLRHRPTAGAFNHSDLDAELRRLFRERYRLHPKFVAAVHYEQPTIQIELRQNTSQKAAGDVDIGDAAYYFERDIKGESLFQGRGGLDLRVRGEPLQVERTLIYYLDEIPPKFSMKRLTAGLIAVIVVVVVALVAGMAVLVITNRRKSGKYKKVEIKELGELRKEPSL
procedure_summary: cell-based or functional assay
recorded_metric: Internalization %, MDA-MB-231, 2 µg/ml, 2 h (%)
Unit % implied. Number only.

Solved entries (count: 3):
# binder, result_units, endpoint_value
data = [
    ("10A9-2 (antibody, V domains shown) VH: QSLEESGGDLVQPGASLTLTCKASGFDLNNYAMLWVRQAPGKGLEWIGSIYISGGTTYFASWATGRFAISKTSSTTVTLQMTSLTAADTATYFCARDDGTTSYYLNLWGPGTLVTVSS VL: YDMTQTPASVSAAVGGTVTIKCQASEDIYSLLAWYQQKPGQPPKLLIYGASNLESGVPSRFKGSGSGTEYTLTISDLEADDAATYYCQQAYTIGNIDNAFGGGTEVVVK", "%", 45),
    ("74F11/15F5 (antibody, human IgG1, V domains shown, LEM construct: VH + rabbit IgG CH1 + human IgG1 CH2-CH3) VH: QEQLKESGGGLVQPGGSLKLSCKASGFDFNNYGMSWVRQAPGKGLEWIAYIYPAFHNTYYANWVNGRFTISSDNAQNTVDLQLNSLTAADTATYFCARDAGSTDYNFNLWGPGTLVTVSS VL: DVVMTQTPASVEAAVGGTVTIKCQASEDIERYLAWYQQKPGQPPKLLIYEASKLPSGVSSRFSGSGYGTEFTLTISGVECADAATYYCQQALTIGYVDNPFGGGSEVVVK", "%", 39),
    ("5D4 (antibody, V domains shown, Rabbit-derived clone; LEM construct: VH + rabbit IgG CH1 + human IgG1 CH2-CH3) VH: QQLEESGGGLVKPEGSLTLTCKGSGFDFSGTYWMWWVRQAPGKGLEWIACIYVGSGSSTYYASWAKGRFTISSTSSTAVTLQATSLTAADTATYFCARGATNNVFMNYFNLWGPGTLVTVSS VL: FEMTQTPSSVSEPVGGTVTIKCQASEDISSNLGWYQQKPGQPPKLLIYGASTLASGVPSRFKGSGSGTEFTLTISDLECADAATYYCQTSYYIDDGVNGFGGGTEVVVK", "%", 60),
]

Exercise: Please give the measured Internalization %, MDA-MB-231, 2 µg/ml, 2 h for this binder: 66A1 (antibody, V domains shown, Rabbit-derived clone; LEM construct: VH + rabbit IgG CH1 + human IgG1 CH2-CH3) VH: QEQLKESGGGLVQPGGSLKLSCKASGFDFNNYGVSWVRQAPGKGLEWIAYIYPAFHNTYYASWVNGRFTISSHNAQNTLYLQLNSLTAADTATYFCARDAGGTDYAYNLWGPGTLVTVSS VL: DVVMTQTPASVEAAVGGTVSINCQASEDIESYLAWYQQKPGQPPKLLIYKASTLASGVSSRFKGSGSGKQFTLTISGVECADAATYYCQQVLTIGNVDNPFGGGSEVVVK
Key: 36

Exercise: Please give the measured Internalization %, MDA-MB-231, 2 µg/ml, 2 h for this binder: 72F12 (antibody, V domains shown, Rabbit-derived clone; LEM construct: VH + rabbit IgG CH1 + human IgG1 CH2-CH3) VH: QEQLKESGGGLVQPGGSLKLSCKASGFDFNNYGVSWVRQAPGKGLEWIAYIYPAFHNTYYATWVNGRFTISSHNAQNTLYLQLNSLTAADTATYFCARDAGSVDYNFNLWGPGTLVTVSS VL: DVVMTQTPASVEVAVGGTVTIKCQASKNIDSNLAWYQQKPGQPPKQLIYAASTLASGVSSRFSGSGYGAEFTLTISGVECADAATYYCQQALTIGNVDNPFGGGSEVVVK
Key: 37

Exercise: Please give the measured Internalization %, MDA-MB-231, 2 µg/ml, 2 h for this binder: 9D7-2 (antibody, V domains shown) VH: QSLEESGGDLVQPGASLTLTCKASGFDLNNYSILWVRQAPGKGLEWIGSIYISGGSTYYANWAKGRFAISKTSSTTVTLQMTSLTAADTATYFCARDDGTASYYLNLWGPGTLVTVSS VL: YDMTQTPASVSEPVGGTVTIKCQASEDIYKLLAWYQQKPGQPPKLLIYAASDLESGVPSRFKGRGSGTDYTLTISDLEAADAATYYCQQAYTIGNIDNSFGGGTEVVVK
Key: 48
